Target: Full-length human PRMT6 (Homo sapiens, UniProt Q96LA8)
Sequence (Q96LA8 with tags, fused parts or gaps): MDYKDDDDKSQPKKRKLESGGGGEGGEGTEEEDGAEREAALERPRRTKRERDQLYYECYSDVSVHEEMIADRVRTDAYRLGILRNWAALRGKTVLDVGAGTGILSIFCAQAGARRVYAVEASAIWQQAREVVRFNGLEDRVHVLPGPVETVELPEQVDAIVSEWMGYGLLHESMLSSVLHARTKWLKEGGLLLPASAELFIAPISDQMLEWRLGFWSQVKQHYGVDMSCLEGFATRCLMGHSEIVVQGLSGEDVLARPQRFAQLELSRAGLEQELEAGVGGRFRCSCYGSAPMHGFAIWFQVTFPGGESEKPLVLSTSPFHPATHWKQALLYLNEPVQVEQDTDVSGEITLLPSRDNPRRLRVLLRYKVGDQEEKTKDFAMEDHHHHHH
pIC50: −log10 of the molar value.
test-readout: pIC50

Please review the following examples before continuing.
                                   compound  observed_measurement
0  CN(CCN)Cc1cnn(C)c1-c1ccc(F)cc1 [Compound 4]                > 7.00
1  CNCCN(C)Cc1cn[nH]c1-c1ccc(OC(C)C)c(Cl)c1 [Compound 201]                > 7.00
2  Cc1cccc(-c2n[nH]cc2CN(C)CCN)c1 [Compound 131]                > 7.00

Problem: Find the recorded pIC50 belonging to CN(CCN)Cc1c[nH]nc1-c1ccc(Cl)cc1F [Compound 132] and report it.
Result: > 7.00

Problem: Which pIC50 value belongs to CN(CCN1CCC1)Cc1c[nH]nc1-c1ccc(C#N)cc1 [Compound 185] ?
Result: 6.00 to 7.00

Problem: # input compound: CNCCN(C)Cc1c[nH]nc1-c1ccc(Cl)c(F)c1 [Compound 182] ; wanted: its pIC50
Result: > 7.00

Problem: Look up pIC50 for this compound: CC(C)Oc1cc(-c2n[nH]cc2CN(C)CCN)ccc1F [Compound 188]
Result: > 7.00

Problem: Query: pIC50; subject: CNCCN(C)Cc1cnn(C(C)C)c1-c1ccc(F)cc1 [Compound 16]
Result: > 7.00

Problem: Query: pIC50; subject: CNCCN(C)Cc1c[nH]nc1-c1cc(Cl)ccc1OC [Compound 53]
Result: 6.00 to 7.00

Problem: pIC50 for CNCCN(C)Cc1c[nH]nc1-c1ccccc1O [Compound 35] ?
Result: 6.00 to 7.00
